Species on record: Bos taurus
Experiment: Displacement of [3H]flumazenil from Benzodiazepine receptor in bovine cerebral cortex membrane at 10 uM
Format: cell membranes
ENDPOINT_LABEL: inhibition
Reply with a number, then the unit it belongs to.

As a guide, the following entries are already answered.
COMPOUND	ENDPOINT_LABEL	TEST_VALUE
Cc1ccc2c(c1)CCC2NC(=O)C(=O)c1c[nH]c2ccc([N+](=O)[O-])cc12 (racemic)	inhibition	2%
O=C(NCc1ccc(F)cc1)C(=O)c1c[nH]c2ccc([N+](=O)[O-])cc12	inhibition	24%
O=C(NC1CCc2cc([N+](=O)[O-])ccc21)C(=O)c1c[nH]c2ccccc12 (racemic)	inhibition	47%

Could you now look at the following compound, please?
What does the data say about its inhibition? Entry: Cc1ccc2c(c1)CCC2NC(=O)C(=O)c1c[nH]c2ccccc12 (racemic)
15%

---

Molecular target: Gamma-aminobutyric acid receptor subunit alpha-2 (Rattus norvegicus, UniProt P18508+P23576+P63138)
Sequence (P23576 whole entry, one chain of several): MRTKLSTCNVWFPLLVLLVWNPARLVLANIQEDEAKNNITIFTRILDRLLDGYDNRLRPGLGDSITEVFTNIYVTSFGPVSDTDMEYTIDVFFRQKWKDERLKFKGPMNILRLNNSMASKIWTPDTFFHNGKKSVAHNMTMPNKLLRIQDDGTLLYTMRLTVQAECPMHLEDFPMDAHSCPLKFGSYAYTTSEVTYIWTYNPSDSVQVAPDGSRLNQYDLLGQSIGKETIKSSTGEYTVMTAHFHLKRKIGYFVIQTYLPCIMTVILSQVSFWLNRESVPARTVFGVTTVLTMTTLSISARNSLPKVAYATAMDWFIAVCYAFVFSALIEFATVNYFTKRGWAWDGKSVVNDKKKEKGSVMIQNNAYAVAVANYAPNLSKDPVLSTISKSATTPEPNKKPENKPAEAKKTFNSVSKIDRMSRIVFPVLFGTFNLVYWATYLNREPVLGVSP
Experiment: Displacement of [3H]flumazenil from rat GABA-A alpha-2-beta-2-gamma-2 receptor expressed in HEK293 cells
ENDPOINT_LABEL: pKi
Recall that pKi is obtained by taking minus log10 of the concentration measured in molar.

MOLECULE	TEST_VALUE
COc1ccc2c(c1)CCC2NC(=O)C(=O)c1c[nH]c2ccccc12 (racemic)	6.16
C[C@@H](NC(=O)C(=O)c1c[nH]c2ccc([N+](=O)[O-])cc12)c1ccccc1	6.92
COc1ccc2c(c1)CCC2NC(=O)C(=O)c1c[nH]c2ccc([N+](=O)[O-])cc12 (racemic)	6.64
O=C(NCc1ccc([N+](=O)[O-])cc1)C(=O)c1c[nH]c2ccccc12	6.68
O=C(NCc1ccc([N+](=O)[O-])cc1)C(=O)c1c[nH]c2ccc([N+](=O)[O-])cc12	5.53
COc1ccc(CNC(=O)C(=O)c2c[nH]c3ccccc23)cc1	5.71

What does the data say about its pKi? Entry: O=C(NCc1ccc(F)cc1)C(=O)c1c[nH]c2ccccc12
6.93

What does the data say about its pKi? Entry: O=C(N[C@@H]1CCc2ccccc21)C(=O)c1c[nH]c2ccc([N+](=O)[O-])cc12
7.07

What does the data say about its pKi? Entry: C[C@@H](NC(=O)C(=O)c1c[nH]c2ccccc12)c1ccccc1
5.81

---

Assay: Displacement of [3H]flumazenil from Benzodiazepine receptor in bovine cerebral cortex membrane
Format: cell membranes, Bos taurus
pKi: −log10 of the molar value.
Label T when pKi is at or above 7; otherwise label F.

Known results for compounds:
COMPOUND	CLASS
O=C(NC1CCc2cc(F)ccc21)C(=O)c1c[nH]c2ccc([N+](=O)[O-])cc12 (racemic)	F
COc1ccc2c(c1)CCC2NC(=O)C(=O)c1c[nH]c2ccccc12 (racemic)	F
O=C(NC1CCc2cc([N+](=O)[O-])ccc21)C(=O)c1c[nH]c2ccc([N+](=O)[O-])cc12 (racemic)	F
O=C(NCc1ccc(F)cc1)C(=O)c1c[nH]c2ccccc12	T
Cc1ccc(-c2nc3ccc(C)cn3c2CC(=O)N(C)C)cc1	T

Form field: pKi at least 7? Entry: C[C@@H](NC(=O)C(=O)c1c[nH]c2ccccc12)c1ccccc1
F

Form field: pKi at least 7? Entry: O=C(NCc1ccc([N+](=O)[O-])cc1)C(=O)c1c[nH]c2ccccc12
T

Form field: pKi at least 7? Entry: O=C(N[C@@H]1CCc2ccccc21)C(=O)c1c[nH]c2ccc([N+](=O)[O-])cc12
T

Form field: pKi at least 7? Entry: CN1C(=O)CN=C(c2ccccc2)c2cc(Cl)ccc21
T

Form field: pKi at least 7? Entry: O=C(NC1CCc2cc(F)ccc21)C(=O)c1c[nH]c2ccccc12 (racemic)
F

Reference source for all entries: ChEMBL document CHEMBL1136986
